Target: firefly luciferase (Photinus pyralis, UniProt P08659)
Sequence (P08659 whole entry): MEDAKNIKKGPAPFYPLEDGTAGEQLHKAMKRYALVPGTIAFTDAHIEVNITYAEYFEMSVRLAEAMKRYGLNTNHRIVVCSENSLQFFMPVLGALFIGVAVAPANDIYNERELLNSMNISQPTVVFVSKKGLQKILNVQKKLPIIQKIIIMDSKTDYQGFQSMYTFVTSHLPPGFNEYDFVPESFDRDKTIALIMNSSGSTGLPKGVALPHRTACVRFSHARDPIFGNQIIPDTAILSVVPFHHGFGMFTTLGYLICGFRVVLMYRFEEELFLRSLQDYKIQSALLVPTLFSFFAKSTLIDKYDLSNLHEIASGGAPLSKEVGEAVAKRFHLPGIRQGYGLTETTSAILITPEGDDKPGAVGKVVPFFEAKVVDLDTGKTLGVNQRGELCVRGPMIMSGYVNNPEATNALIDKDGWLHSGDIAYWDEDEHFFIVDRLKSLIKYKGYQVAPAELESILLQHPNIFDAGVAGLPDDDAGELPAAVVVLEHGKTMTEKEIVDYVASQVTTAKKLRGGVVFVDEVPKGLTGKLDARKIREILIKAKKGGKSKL
Assay: Non-detergent compound screen, firefly luciferase (Example 6)
Assay type: biochemical
Settings: inhibitor 1000 μM; 0.5% Tergitol NP-9, 0.03% BDDABr; read-out: Retained Firefly Luciferase Value (%)
quantityName: remaining activity at 1000 µM (%)
// units = %; emit number, no label

In the examples that follow, each entry is paired with its recorded remaining activity at 1000 µM.
>  <moleculeSmiles>
CCCC[N+](C)(C)CCc1c[nH]c2ccc(/C=C/C(=O)NCc3ccc(OC)cc3)cc12.[I-]

>  <studySystem>
firefly luciferase (Photinus pyralis, UniProt P08659)

>  <remaining activity at 1000 µM, %>
98

$$$$
>  <moleculeSmiles>
COc1ccc(CNC(=O)/C=C/c2ccc3[nH]cc(CN(C)C)c3c2)cc1

>  <studySystem>
firefly luciferase (Photinus pyralis, UniProt P08659)

>  <remaining activity at 1000 µM, %>
100

$$$$
>  <moleculeSmiles>
C=C(C(=O)NCc1ccc(OC)cc1)c1ccc2[nH]ccc2c1

>  <studySystem>
firefly luciferase (Photinus pyralis, UniProt P08659)

>  <remaining activity at 1000 µM, %>
101

$$$$

Q: Entry COc1cc(CNC(=O)/C=C/c2ccc3[nH]cc(CCN(C)C)c3c2)cc(OC)c1OC : reported remaining activity at 1000 µM = ?
Ans: 101

Q: And COc1ccc(CCNC(=O)/C=C/c2ccc3[nH]cc(CCN(C)C)c3c2)cc1 ?
Ans: 99

Q: Then what about the molecule COc1ccc(CNC(=O)/C=C/c2ccc3[nH]cc(CCN(C)C)c3c2)cc1 ?
Ans: 102

Q: One more molecule: COc1ccc(CNC(=O)/C=C/c2ccc3oc(=O)cc(C)c3c2)cc1
Ans: 102

Q: Please do the same for CCCCCCNC(=O)/C=C/c1ccc2[nH]cc(CCN(C)C)c2c1 as well.
Ans: 102

Q: Entry COc1ccc(CNC(=O)/C=C/c2ccc3[nH]cc(CCCN(C)C)c3c2)cc1 please
Ans: 100

Q: Another: CN(C)CCc1c[nH]c2ccc(/C=C/C(=O)NCc3ccc([N+](=O)[O-])cc3)cc12
Ans: 102

* * *

Target: Renilla luciferase (Renilla reniformis, UniProt P27652)
Sequence (P27652 1-311): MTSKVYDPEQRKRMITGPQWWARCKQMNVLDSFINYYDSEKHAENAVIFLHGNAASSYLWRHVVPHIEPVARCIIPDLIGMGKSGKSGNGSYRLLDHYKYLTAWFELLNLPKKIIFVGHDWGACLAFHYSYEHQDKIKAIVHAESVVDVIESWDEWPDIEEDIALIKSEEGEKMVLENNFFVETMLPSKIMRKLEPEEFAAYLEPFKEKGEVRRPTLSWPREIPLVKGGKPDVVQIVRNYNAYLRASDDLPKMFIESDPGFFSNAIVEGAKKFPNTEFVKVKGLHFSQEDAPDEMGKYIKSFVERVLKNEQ
Assay: Detergent screen with Tergitol NP-9, Renilla luciferase (Example 3)
Type: biochemical
Conditions: retained firefly / retained Renilla; 0.06% quencher; 0.5% Tergitol NP-9
Returns one of True or False; True when Selectivity Value is >= 2.

>  <compound>
CCCCCCCCCCCC[N+](C)(C)C1c2ccccc2-c2ccccc21.[Br-]

>  <class>
True

$$$$
>  <compound>
CCCCCCCCCCCC[N+](C)(C)Cc1ccccc1.[Br-] [Benzyldimethyldodecylammonium bromide]

>  <class>
True

$$$$
>  <compound>
CCCCCCCCCCCC[N+](C)(C)Cc1ccccc1-c1ccccc1.[Br-]

>  <class>
True

$$$$
>  <compound>
CCCCCC[N+](C)(C)Cc1ccccc1.[Br-]

>  <class>
False

$$$$

Q: Form field: Selectivity Value at least 2? Entry: CCCCCCCCCCCC[N+](C)(C)Cc1ccc2c(c1)CCCC2.[Cl-]
Ans: False

Q: What about CCCCCCCCCCCC[N+](C)(C)Cc1ccc(C(=O)[O-])cc1 [Compound 1424] ?
Ans: True

Q: Check CCCCCCCCCCCCOCC[N+](C)(C)Cc1ccccc1.[Cl-] too.
Ans: True

Q: What about this compound? C[N+](C)(Cc1ccccc1)C1CCCCC1.[Br-]
Ans: False

* * *

Biological target: firefly luciferase (Photinus pyralis)
Assay: Non-detergent compound screen, firefly luciferase (Example 6)
Type: biochemical
Conditions: inhibitor 23 μM; 0.5% Tergitol NP-9, 0.03% BDDABr; read-out: Retained Firefly Luciferase Value (%)
quantityName: remaining activity at 23 µM
Be sure to follow the number with its unit.

Q: Any idea what its remaining activity at 23 µM is? The compound is C=C(C(=O)NCc1ccc(OC)cc1)c1ccc2oc(=O)cc(C)c2c1
Ans: 101%

Q: Also COc1ccc(CNC(=O)COc2ccc3[nH]cc(CCN(C)C)c3c2)cc1 ?
Ans: 96%

Q: Try this compound too: C=C(C(=O)NCc1ccc(OC)cc1)c1ccc2ncccc2c1
Ans: 100%

Q: Here is the next compound: COc1ccc(CNC(=O)/C(C#N)=C/CCCCCCCBr)cc1
Ans: 101%

Q: Request: COc1ccc(COC(=O)/C=C/c2ccc3[nH]cc(CCN(C)C)c3c2)cc1
Ans: 100%

Q: Entry C=C(C(=O)NCc1ccc(OC)cc1)c1ccc2[nH]ccc2c1 please
Ans: 101%

Q: // query: CCCCCCNC(=O)/C=C/c1ccc2[nH]cc(CCN(C)C)c2c1
Ans: 102%

Q: Item: COc1ccc(CNC(=O)/C=C/c2ccc3oc(=O)cc(C)c3c2)cc1
Ans: 100%

* * *

Below, each entry is listed alongside its reported remaining activity at 10 µM.
Target: UniProtKB P08659
Assay: Non-detergent compound screen, firefly luciferase (Example 6)
Format: biochemical
Details: inhibitor 10 μM; 0.5% Tergitol NP-9, 0.03% BDDABr; read-out: Retained Firefly Luciferase Value (%)
Could you give me the number in %? Just the number is fine.

Solved entries:
>  <compound>
COc1ccc(CNC(=O)/C=C/c2ccc3ncccc3c2)cc1 [Compound 3046]

>  <remaining activity at 10 µM, %>
100

$$$$
>  <compound>
COc1cc(OC)c(CNC(=O)/C=C/c2ccc3[nH]cc(CCN(C)C)c3c2)c(OC)c1 [Compound 3073]

>  <remaining activity at 10 µM, %>
101

$$$$

Q: Give the reported remaining activity at 10 µM for COc1ccc(CNC(=O)/C=C/c2ccc3c(c2)c(CCN(C)C)cn3Cc2ccccc2)cc1 [Compound 3055] (system: UniProtKB P08659).
Ans: 100

Q: Please answer likewise for COc1ccc(CNC(=O)/C=C/c2ccc3[nH]cc(CCN(C)C)c3c2)cc1 [Compound 3068]
Ans: 101

Q: Likewise for COc1ccc(CNC(=O)/C=C/c2ccc3[nH]cc(CCN(C)C)c3c2)c(OC)c1 [Compound 3051] ?
Ans: 102

* * *

Catalogue of remaining activity at 100 µM readings, one per entry.
Target: UniProt:P27652
Assay: Non-detergent compound screen, Renilla luciferase (Example 6)
Format: biochemical
Settings: inhibitor 100 μM; 0.5% Tergitol NP-9, 0.03% BDDABr; read-out: Retained Renilla Luciferase Value (%)
Enter your answer as a number in %; do not include the unit.

>  <moleculeSmiles>
COc1ccc(CNC(=O)/C=C/c2ccc3[nH]ccc3c2)cc1

>  <remaining activity at 100 µM, %>
79

$$$$
>  <moleculeSmiles>
COc1cc(OC)c(CNC(=O)/C=C/c2ccc3[nH]cc(CCN(C)C)c3c2)c(OC)c1

>  <remaining activity at 100 µM, %>
87

$$$$
>  <moleculeSmiles>
COc1ccc(CNC(=O)/C=C/c2ccc3[nH]cc(CCCN(C)C)c3c2)cc1

>  <remaining activity at 100 µM, %>
15

$$$$

Q: For the compound COc1ccc(CNC(=O)/C=C/c2ccc3[nH]cc(CCN(C)C)c3c2)c(OC)c1 , what remaining activity at 100 µM is on record?
Ans: 14

Q: Try the compound CN(C)CCc1c[nH]c2ccc(/C=C/C(=O)N3CCOCC3)cc12
Ans: 35

Q: # iterate: COc1ccc(CNC(=O)/C=C/c2ccc3ncccc3c2)cc1
Ans: 78

Q: Try this compound next: CCCC[N+](C)(C)CCc1c[nH]c2ccc(/C=C/C(=O)NCc3ccc(OC)cc3)cc12.[I-]
Ans: 1

Q: // repeat for COc1ccc(CNC(=O)/C=C/c2ccc3[nH]cc(CCN(C)C)c3c2)cc1 and report
Ans: 10

Q: Now give it for CN(C)CCc1c[nH]c2ccc(/C=C/C(=O)NCc3ccc([N+](=O)[O-])cc3)cc12 too.
Ans: 19

Q: Same lookup for COc1ccc(CNC(=O)/C(C#N)=C/c2ccc3[nH]cc(CCN(C)C)c3c2)cc1 , please.
Ans: 36

Q: Another compound: COc1ccc(CNC(=O)/C=C/c2ccc3[nH]cc(CN(C)C)c3c2)cc1
Ans: 34
